Target: Glutamate NMDA receptor
Assay: Inhibition of [3H]DCKA binding to NMDA receptor of rat brain membranes.
Format: cell membranes, Membrane
observable: IC50 (nM)

{"columns": ["molecule", "reading"],
 "data": [
  ["Oc1nc2cc(F)c(Cl)c(F)c2nc1O", 630],
  ["O=Nc1c(O)c2cc(Cl)ccc2[nH]c1=O", 3400],
  ["Oc1nc2cc(Cl)c(Cl)c(Cl)c2nc1O", 30],
  ["O=Nc1c(O)c2c(Cl)cc(Cl)cc2[nH]c1=O", 33],
  ["O=Nc1c(O)c2cc(F)c(Cl)c(F)c2[nH]c1=O", 910],
  ["O=[N+]([O-])c1c(O)nc2cc(Cl)c(Cl)cc2c1O", 400]
]}

I. O=Nc1c(O)c2c(F)c(F)c(F)c(F)c2[nH]c1=O
II. O=[N+]([O-])c1c(O)nc2cc(Cl)c(Cl)c(Cl)c2c1O
Query: In terms of reported IC50, does I or II have the smaller number? Indicate your choice by writing its label.
Reply: II

a. O=[N+]([O-])c1c(O)nc2cc(Cl)cc(Cl)c2c1O
b. O=Nc1c(O)nc2cc(Cl)c(Cl)c(Cl)c2c1O
c. O=[N+]([O-])c1c(O)nc2c(F)c(Cl)c(F)cc2c1O
Query: Sort these molecules on IC50 so the largest reading comes first. Please, when replying, give the labels in the order that was requested.
Reply: c, a, b
(c: 40000 nM, a: 220 nM, b: 7 nM)

----------
Biological target: Glutamate NMDA receptor
Experiment: Inhibition of [3H]DCKA binding to NMDA receptor of rat brain membranes.
Type: cell membranes, Membrane
observable: IC50 (µM)

Known IC50 results, listed for orientation:
{"columns": ["structure-as-smiles", "unit-symbol", "IC50"],
 "data": [
  ["O=c1[nH]c2c(F)c(F)c(F)c(F)c2[nH]c1=O", "µM", 0.73],
  ["O=Nc1c(O)nc2ccccc2c1O", "µM", 1.4]
]}

1. O=Nc1c(O)nc2cc(Cl)c(Cl)cc2c1O
2. O=[N+]([O-])c1c(O)nc2ccccc2c1O
Query: Please choose the item with the lower IC50 value from this pair: 1 and 2 Provide the label of your selected option as the answer.
Reply: 1

----------
Biological target: Glutamate NMDA receptor
Assay: Inhibition of [3H]DCKA binding to NMDA receptor of rat brain membranes.
Assay type: cell membranes, Membrane
observable: IC50 (nM)

Consider the reported IC50 for these compounds:
{"columns": ["structure-as-smiles", "IC50 [nM]"],
 "data": [
  ["O=Nc1c(O)nc2cc(Cl)ccc2c1O", 53],
  ["O=c1[nH]c2ccc(Cl)cc2[nH]c1=O", 1800],
  ["O=Nc1c(O)nc2cccc(Cl)c2c1O", 4400]
]}

1. O=[N+]([O-])c1c(O)nc2cccc(Cl)c2c1O
2. Cc1cc(C)c2c(O)c([N+](=O)[O-])c(O)nc2c1
3. Cc1cc(C)c2c(O)c(N=O)c(=O)[nH]c2c1
4. Cc1cc(C)c2nc(O)c(O)nc2c1
Query: Sort ascending by IC50. Use the labels to give the ranking in the order requested.
Reply: 3, 2, 4, 1
(3: 37 nM, 2: 290 nM, 4: 2100 nM, 1: 61000 nM)
